tested on: SF-295; assay: NCI tumour cell line growth inhibition, 48 h
The source made the active and inactive calls. Cut-off read from the data, not from the text of the source: active = GI50 up to about 1.1 µM and inactive = higher.
measurement label: GI50

// known answers, use as guide
[[record]]
compound = "O=C(/C=C1\\N=C(c2ccccc2)N(c2nc3c(Cl)cc(Cl)cc3s2)C1=O)/C=C/c1ccccc1"
measurement_label = "GI50"
recorded_result = "> 100 µM (inactive)"

[[record]]
compound = "CC1=C(Cl)C=CP(=O)(OC(C)C)C1 (centres undefined)"
measurement_label = "GI50"
recorded_result = "> 100 µM (inactive)"

[[record]]
compound = "O=C(CCC(=O)Nc1ccc(Cl)c(Cl)c1)CC(=O)c1ccc(Cl)cc1"
measurement_label = "GI50"
recorded_result = "> 100 µM (inactive)"

[[record]]
compound = "COc1ccc2c(c1)/C(=C\\c1c(-c3ccccc3)nc3n1CCS3)C(=O)N2"
measurement_label = "GI50"
recorded_result = "3.79 µM (inactive)"

[[record]]
compound = "Oc1ccc2ccccc2c1-c1nnc(CCCCCCCCc2nnc(-c3c(O)ccc4ccccc34)o2)o1"
measurement_label = "GI50"
recorded_result = "3.61 µM (inactive)"

[[record]]
compound = "C=C(C)C1Cc2c(cc(OC)c3c(=O)c4ccccc4n(C)c23)O1 (centres undefined)"
measurement_label = "GI50"
recorded_result = "> 100 µM (inactive)"

[[record]]
compound = "CC(C)=C1C(=O)c2c(Cl)sc(Cl)c2C1=O"
measurement_label = "GI50"
recorded_result = "39.5 µM (inactive)"

[[record]]
compound = "C=CC[C@@]1([C@H](C=C)COCc2ccc(OC)cc2)CC[C@]2(C)OC(C)(C)[C@@H](c3ccccc3)N2C1=S"
measurement_label = "GI50"
recorded_result = "43.1 µM (inactive)"


# ---- query compound ----
query: Could you share which GI50 value was measured for C=C1C(=O)OC2/C=C(\C)C3OC3/C=C(/C(=O)OC)C(OC(C)=O)C(OC(=O)C(C)(O)C(C)OC(C)=O)C12 (centres undefined) ?
result: 9.2 µM (inactive)
